Here is a set of compounds with reported pIC50 for UniProt Q9GZT9, compiled from the literature.
pIC50: −log10 of the molar value.
readout label: pIC50

(I) Cn1c(=O)c(C(=O)NCC(=O)O)c(O)c2cnc(N3CCCC4CCCCC43)nc21 (stereo not drawn)
(II) O=C(O)c1cnn(-c2nc(O)c3c(cnn3C3CCCCCCC3)n2)c1
(III) O=C(O)c1cnn(-c2nc(O)c3c(n2)c(F)nn3CC2CCC3(CCC3)CC2)c1
(IV) CC(CNC(=O)c1ncc(C(=O)NC(C)(C)c2ccc(-c3ccc(Cl)cc3)cc2)c(O)n1)C(=O)O (single isomer, unassigned)
Q) Sort the items above on pIC50, descending. To answer, write out the labels according to the requested order.
A) IV, III, II, I
